B1: Pre-mRNA-processing factor 40 homolog B, residues 274 to 332; numbered along this chain, Q6NWY9 (parent)
chain: SNREKAKQAFKELLRDKAVPSNASWEQAMKMVVTDPRYSALPKLSEKKQAFNAYKAQRE

- Variants of: B1
- Method summary: abundance fitness (aPCA) (normalised: wild type 0, dead -1); higher = more abundant; growth selection in yeast, the domain comes from the species named
- Recorded conditions: Homo sapiens
Mark condition met for reported abundance fitness of -0.5 or greater; mark condition not met for anything smaller.

N2A; condition met
V33N; condition met
K48C; condition not met
A18H; condition met
S21W; condition met
A56P; condition met
S21F; condition met
D16C; condition not met
K43W; condition met
E12Y; condition not met
K17P; condition not met
L14G; condition met
A9Y; condition met
A18S; condition met
S24A; condition met
E59W; condition not met
N2C; condition not met
A56L; condition met
K43Y; condition not met
P42C; condition not met
